Tested on: Oryza sativa (ORYSA)
Assay type: in vivo
Conditions: crop plant compatibility, 80 g/ha, effect in comparison to untreated controls
endpoint_name: Post-emergence action against ORYSA in %

| smiles_string | Post-emergence action against ORYSA in % |
| --- | --- |
| COCCOC(=O)COc1nn(-c2ncccc2C(F)(F)F)c(-c2ccc(F)nc2)c1Cl | 10% |

Look at this molecule and give its reported Post-emergence action against ORYSA in %. COCCOC(=O)COc1nn(-c2ncccc2C(F)(F)F)c(-c2ccc(F)nc2)c1Br
10%

State the recorded Post-emergence action against ORYSA in % for this entry: COC(=O)[C@@H](C)Oc1nn(-c2nc(F)ccc2F)c(-c2ccc(F)nc2)c1Br
0%

Returns the measured Post-emergence action against ORYSA in % for the input molecule. Input: COC(=O)CCOC(=O)COc1nn(-c2ncccc2C(F)(F)F)c(-c2ccc(F)nc2)c1Br
20%

----------
Test system: Avena fatua (AVEFA)
Assay: Post-emergence herbicidal action against AVEFA
Format: in vivo
Conditions: 80 g/ha, visual rating about 3 weeks after treatment
endpoint_name: Post-emergence action against AVEFA in %
Answer with the value and then the unit.

Would you please look over these solved cases?
| molecule | Post-emergence action against AVEFA in % |
| --- | --- |
| C[C@@H](Oc1nn(-c2ncccc2F)c(-c2ccc(F)nc2)c1Br)C(=O)OCc1ccccn1 | 90% |
| CCOC(=O)[C@@H](C)Oc1nn(-c2ccccn2)c(-c2cncc(F)c2)c1Cl | 80% |
| O=C(O)COc1nn(-c2ncccc2F)c(-c2ccc(F)nc2)c1Br | 80% |
| COC(=O)[C@@H](C)NC(=O)COc1nn(-c2ccccn2)c(-c2ccnc(F)c2)c1Br | 80% |
| O=C(O)COc1nn(-c2ccccn2)c(-c2cncc(F)c2)c1Cl | 90% |

# ---- query molecule ----
Value lookup for Post-emergence action against AVEFA in %; key = CCOC(=O)C(C)Oc1nn(-c2ccccn2)c(-c2ccc(F)nc2)c1Br (stereo not drawn)
90%

----------
Tested on: Triticum aestivum (TRZAS)
Format: in vivo
Details: pre-emergence, 80 g/ha, crop plant compatibility, in comparison to untreated controls
endpoint_name: Pre-emergence action against TRZAS in % (%)
Write down the numeric answer in % and omit the unit.

| compound | target_system | unit_abbreviation | Pre-emergence action against TRZAS in % |
| --- | --- | --- | --- |
| COC(=O)CCOC(=O)COc1nn(-c2cccc(C)n2)c(-c2ccc(F)nc2)c1Cl | Triticum aestivum (TRZAS) | % | 0 |

Quick one: Pre-emergence action against TRZAS in % for CCOC(=O)COc1nn(-c2cccc(C)n2)c(-c2ccc(F)nc2)c1Cl ?
10

Using the record for COC(=O)CNC(=O)COc1nn(-c2cccc(C)n2)c(-c2ccc(F)nc2)c1Br , report its Pre-emergence action against TRZAS in %.
10

Data request, read-out Pre-emergence action against TRZAS in %, for CCOC(=O)COc1nn(-c2ccccn2)c(-c2ccc(F)nc2)c1[N+](=O)[O-]
0

----------
System: Pharbitis purpurea (PHBPU)
Assay: Pre-emergence herbicidal action against PHBPU
Type: in vivo
Settings: dosage 320 g/ha
Quick reference: Pre-emergence action against PHBPU in % of the listed items.
Number only, in %; omit the unit.

Completed entries (count: 3):
| molecule | target_system | test_result |
| --- | --- | --- |
| COC(=O)COc1nn(-c2nc(F)ccc2F)c(-c2ccc(F)nc2)c1C1CC1 | Pharbitis purpurea (PHBPU) | 80 |
| COC(=O)C(C)NC(=O)[C@@H](C)Oc1nn(-c2ccccn2)c(-c2ccc(F)nc2)c1Cl (some centres unmarked) | Pharbitis purpurea (PHBPU) | 80 |
| COC(=O)CCOC(=O)COc1nn(-c2ccccn2)c(-c2ccc(F)nc2)c1Cl | Pharbitis purpurea (PHBPU) | 80 |

// query Pre-emergence action against PHBPU in % value for entry COC(=O)CCOC(=O)COc1nn(-c2cccc(C)n2)c(-c2ccc(F)nc2)c1Cl
80

Recorded Pre-emergence action against PHBPU in % for CN(C)S(=O)(=O)NC(=O)COc1nn(-c2ncccc2F)c(-c2ccc(F)nc2)c1Br , please?
100

Consider the molecule O=C(O)COc1nn(-c2ncccc2F)c(-c2ccc(F)nc2)c1C1CC1 and give its measured Pre-emergence action against PHBPU in %.
80

Query (molecule): CCOC(=O)COc1nn(-c2ncccc2Cl)c(-c2ccc(F)nc2)c1Br ; field requested: Pre-emergence action against PHBPU in %
90

Give its Pre-emergence action against PHBPU in % value. Item: COC(=O)[C@@H](C)Oc1nn(-c2ncccc2F)c(-c2ccc(F)nc2)c1C1CC1
90

----------
System: Alopecurus myosuroides (ALOMY)
Assay: Post-emergence herbicidal action against ALOMY
Format: in vivo
Settings: 320 g/ha, visual rating about 3 weeks after treatment vs untreated controls (100% = plants have died, 0% = like control plants)
In this section we review reported Post-emergence action against ALOMY in % values for a set of compounds.
Give the value, in units of %, as a plain number.

// known answers, use as guide
| compound | endpoint_name | unit_abbreviation | test_result |
| --- | --- | --- | --- |
| COC(=O)COc1nn(-c2nc(F)ccc2F)c(-c2ccc(F)nc2)c1C1CC1 [Example I-300] | Post-emergence action against ALOMY in % | % | 90 |
| COC(=O)C(C)NC(=O)[C@@H](C)Oc1nn(-c2ccccn2)c(-c2ccc(F)nc2)c1Cl (some centres unmarked) [Example I-358] | Post-emergence action against ALOMY in % | % | 90 |
| CCOC(=O)COc1nn(-c2ncccc2F)c(-c2ccnc(F)c2)c1Br [Example I-136] | Post-emergence action against ALOMY in % | % | 90 |
| CCOC(=O)COc1nn(-c2cccnc2C)c(-c2ccc(F)nc2)c1Br [II-46] | Post-emergence action against ALOMY in % | % | 80 |

May I ask what Post-emergence action against ALOMY in % has been recorded for CCOC(=O)COc1nn(-c2ncccc2F)c(-c2cncc(F)c2)c1C(F)(F)F [Example I-141] ?
90

// Post-emergence action against ALOMY in % lookup, key: COC(=O)[C@@H](C)Oc1nn(-c2ncccc2F)c(-c2cccnc2)c1Br [Example I-03]
100

What does the data say about its Post-emergence action against ALOMY in %? Entry: COC(=O)[C@@H](C)Oc1nn(-c2ncccc2F)c(-c2cncc(F)c2)c1C1CC1 [Example I-144]
90

I'd like to know its Post-emergence action against ALOMY in %. The compound in question is CC(NC(=O)[C@@H](C)Oc1nn(-c2ccccn2)c(-c2ccc(F)nc2)c1Cl)C(=O)O (some centres unmarked) [Example I-350]
90

Item COC(=O)[C@@H](C)Oc1nn(-c2ccnc(Cl)c2)c(-c2ccc(F)nc2)c1Br [III-22] has what recorded Post-emergence action against ALOMY in %?
100

Can you look up the measured Post-emergence action against ALOMY in % of COC(=O)COc1nn(-c2nc(F)ccc2F)c(-c2cncc(F)c2)c1Br [Example I-210] for me?
90

----------
System: Amaranthus retroflexus (AMARE)
Assay: Post-emergence herbicidal action against AMARE
Format: in vivo
Settings: 320 g/ha, visual rating about 3 weeks after treatment
Protocol: Seeds of monocotyledonous and dicotyledonous weeds and crop plants are placed in sandy loam in plastic or organic planting pots, covered with soil and cultivated in a greenhouse under controlled growth conditions. 2 to 3 weeks after sowing, the test plants are treated at the one-leaf stage. […]
endpoint_name: Post-emergence action against AMARE in % (%)
Form entry: value (%) — number only.

As a guide, the following entries are already answered.
| molecule | test_result |
| --- | --- |
| CCOC(=O)COc1nn(-c2ccccn2)c(-c2ccc(Cl)nc2)c1Cl [Example I-241] | 80 |
| COC(=O)CNC(=O)[C@@H](C)Oc1nn(-c2ccccn2)c(-c2ccc(F)nc2)c1Cl [Example I-339] | 90 |
| COC(=O)CNC(=O)[C@@H](C)Oc1nn(-c2ccccn2)c(-c2cncc(F)c2)c1Cl [Example I-185] | 80 |

Post-emergence action against AMARE in % lookup needed for O=C(O)COc1nn(-c2nc(F)ccc2F)c(-c2cncc(F)c2)c1Br [Example I-207] , thanks.
80

So what's the measured Post-emergence action against AMARE in % for this one? COC(=O)CCOC(=O)[C@@H](C)Oc1nn(-c2ccccn2)c(-c2ccc(Cl)nc2)c1Cl [Example I-245]
80

What value of measured Post-emergence action against AMARE in % is listed for O=C(COc1nn(-c2ncccc2F)c(-c2ccc(F)nc2)c1C1CC1)OCC1CCCO1 (centres unmarked) [Example I-274] ?
90

Given the molecule C=CCNC(=O)COc1nn(-c2ncccc2F)c(-c2ccc(F)nc2)c1Br [Example I-31] , what is its reported Post-emergence action against AMARE in %?
80

What value of measured Post-emergence action against AMARE in % is listed for COCCOC(=O)COc1nn(-c2cccnc2C)c(-c2cncc(F)c2)c1Br [II-40] ?
80
